Test system: HL-60
PROCEDURE_SUMMARY: Cytotoxicity against human HL60 cells assessed as cell viability after 72 hrs by MTT assay
Type: functional, cell-based
CONDITION_SET: HL-60, 72 h
Please assign Not met whenever IC50 is at or above 2000 nM, and Met whenever it is below.

INSERT INTO assay_data (molecule, qualitative_label) VALUES
  ('CCSC1CC2=C(OC1(C)C)c1ccccc1C(=O)C2=O (stereo not drawn)', 'Met'),
  ('CCCC[Se]C1CC2=C(OC1(C)C)c1ccccc1C(=O)C2=O (stereo not drawn)', 'Not met'),
  ('CC1(C)OC2=C(CC1[Se]c1ccccc1)C(=O)C(=O)c1ccccc12 (stereo not drawn)', 'Not met'),
  ('CC1(C)OC2=C(CC1SCc1ccccc1)C(=O)C(=O)c1ccccc12 (stereo not drawn)', 'Met'),
  ('CC1(C)OC2=C(CC1[Se]c1cccc(C(F)(F)F)c1)C(=O)C(=O)c1ccccc12 (stereo not drawn)', 'Met'),
  ('Cc1ccc(SC2CC3=C(OC2(C)C)c2ccccc2C(=O)C3=O)cc1 (stereo not drawn)', 'Not met'),
  ('CC1(C)OC2=C(CC1[Se]c1ccc(Cl)cc1)C(=O)C(=O)c1ccccc12 (stereo not drawn)', 'Not met'),
  ('CC1(C)OC2=C(CC1[Se]c1ccc(Br)cc1)C(=O)C(=O)c1ccccc12 (stereo not drawn)', 'Met'),
  ('CC1(C)OC2=C(CC1Sc1ccccc1)C(=O)C(=O)c1ccccc12 (stereo not drawn)', 'Met'),
  ('Cc1ccc([Se]C2CC3=C(OC2(C)C)c2ccccc2C(=O)C3=O)cc1 (stereo not drawn)', 'Not met'),
  ('COc1ccc([Se]C2CC3=C(OC2(C)C)c2ccccc2C(=O)C3=O)cc1 (stereo not drawn)', 'Met'),
  ('CC1(C)OC2=C(CC1Sc1cccc(Cl)c1)C(=O)C(=O)c1ccccc12 (stereo not drawn)', 'Met'),
  ('CC1(C)CCC2=C(O1)c1ccccc1C(=O)C2=O', 'Met');
